- systemTested: T1, human EphA7 (Homo sapiens, UniProt Q15375)
- T1 construct: a protein of the extracellular region of each human Eph receptor fused with the SEAP protein and the His tag; made in house; host or cells: Expi293F cells (culture supernatant)
- T1 sequence (Q15375 28-555 limits assumed): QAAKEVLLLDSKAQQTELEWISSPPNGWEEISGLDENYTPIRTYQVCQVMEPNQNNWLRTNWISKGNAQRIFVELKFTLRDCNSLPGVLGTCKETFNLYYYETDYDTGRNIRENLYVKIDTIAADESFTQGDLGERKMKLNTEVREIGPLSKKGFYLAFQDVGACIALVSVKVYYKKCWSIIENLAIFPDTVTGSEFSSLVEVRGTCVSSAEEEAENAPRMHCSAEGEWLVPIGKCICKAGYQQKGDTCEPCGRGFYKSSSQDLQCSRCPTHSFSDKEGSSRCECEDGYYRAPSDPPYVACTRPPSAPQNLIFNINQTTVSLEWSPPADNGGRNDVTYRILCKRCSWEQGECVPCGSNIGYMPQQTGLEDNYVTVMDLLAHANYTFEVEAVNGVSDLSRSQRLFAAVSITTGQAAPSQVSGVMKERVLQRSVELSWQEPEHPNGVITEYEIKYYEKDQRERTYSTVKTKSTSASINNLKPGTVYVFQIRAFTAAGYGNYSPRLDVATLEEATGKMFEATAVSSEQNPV
- testProtocol: Selectivity ELISA of humanized antibodies for human Eph receptor
- Type: binding
- studyConditions: coated protein 1 nM
observationType: hEphA7-SEAP-: absorbance at 450 nm, percentage with respect to hEphA4-SEAP-His as 100% (%)
Please respond with the number in % and leave the unit unwritten.

molecule	unitsText	result
96 (antibody, V domains shown, constant regions without entry; synthetic humanized antibody light chain variable region sequence; synthetic humanized antibody heavy chain variable region sequence) VL: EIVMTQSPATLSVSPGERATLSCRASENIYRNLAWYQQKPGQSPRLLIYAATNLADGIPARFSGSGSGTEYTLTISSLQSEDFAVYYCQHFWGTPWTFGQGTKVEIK VH: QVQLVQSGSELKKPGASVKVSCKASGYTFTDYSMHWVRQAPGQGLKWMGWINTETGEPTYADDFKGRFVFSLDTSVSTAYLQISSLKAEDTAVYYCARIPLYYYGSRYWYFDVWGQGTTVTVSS	%	5.3

As a next step, examine the molecule that follows.
Field request: hEphA7-SEAP-: absorbance at 450 nm, percentage with respect to hEphA4-SEAP-His as 100% | item: 76 (antibody, V domains shown, synthetic humanized antibody heavy chain variable region sequence; synthetic humanized antibody light chain variable region sequence) VH: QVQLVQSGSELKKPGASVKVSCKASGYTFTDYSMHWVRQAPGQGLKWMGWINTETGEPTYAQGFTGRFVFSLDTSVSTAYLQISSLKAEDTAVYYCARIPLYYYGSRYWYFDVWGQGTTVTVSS VL: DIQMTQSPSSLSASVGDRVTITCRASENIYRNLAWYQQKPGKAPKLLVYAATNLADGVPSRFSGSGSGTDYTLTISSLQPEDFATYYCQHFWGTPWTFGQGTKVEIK
4.8
